B1: H2-Kb / F5 (parent)
chain 1: GDSVTQTEGLVTLTEGLPVMLNCTYQSTYSPFLFWYVQHLNEAPKLLLKSFTDNKRPEHQGFHATLHKSSSSFHLQKSSAQLSDSALYYCALSPSNMGYKLTFGTGTSLLVDP
chain 2: EAAVTQSPRNKVAVTGGKVTLSCNQTNNHNNMYWYRQDTGHGLRLIHYSYGAGSTEKGDIPDGYKASRPSQENFSLILELATPSQTSVYFCASGDASEQYFGPGTRLTVL
chain 3: not shown
chain 4: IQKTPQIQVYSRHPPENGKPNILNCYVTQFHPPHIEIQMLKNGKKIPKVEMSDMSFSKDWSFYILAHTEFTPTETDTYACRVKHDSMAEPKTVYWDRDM
chain 5: SIINFEKL

# Variants of: B1
# EXPERIMENTAL DETAILS: % of reporter cells activated (NFAT-GFP), raw; note: test concentration or dose not given here
# RECORDED CONDITIONS: with F5; scale: % of reporter cells activated
Hi! Just check whether ratio to parent is below 0.6. Below gives class 1, equal or above gives class 0.

Qu. For chain 5 I2E , is the recorded ratio to parent below the cut-off of 0.6?
Ans. class 1

Qu. Is the reported ratio to parent for chain 5 F5P strictly below 0.6?
Ans. class 0

Qu. ratio to parent strictly < 0.6 for this variant? chain 5 S1K
Ans. class 1

Qu. Does the reported ratio to parent of the following variant sit strictly below 0.6? chain 5 E6W
Ans. class 1

Qu. Consider the variant chain 5 K7F . Is its ratio to parent strictly less than 0.6?
Ans. class 0

Qu. is_below(ratio to parent, 0.6) for chain 5 L8I ?
Ans. class 0

Qu. In plain terms, does chain 5 N4P come in under 0.6 for ratio to parent?
Ans. class 1

Qu. Is it true that ratio to parent reported for chain 5 I2W is less than 0.6?
Ans. class 0

Qu. Please indicate whether the reported ratio to parent of chain 5 I3V is strictly below 0.6.
Ans. class 1

Qu. Identify whether the variant chain 5 L8D records ratio to parent below 0.6.
Ans. class 0

Qu. I'd appreciate it if you could check whether chain 5 K7M has ratio to parent smaller than 0.6.
Ans. class 0

Qu. Does chain 5 S1I have ratio to parent strictly under 0.6?
Ans. class 1

Qu. Please check: ratio to parent for chain 5 S1T , strictly under 0.6 or not?
Ans. class 1

Qu. Consider chain 5 K7I . Does its ratio to parent lie strictly below 0.6?
Ans. class 0

Qu. Hi there! Is ratio to parent for chain 5 S1G below 0.6, do you know?
Ans. class 0

Qu. Hello, is ratio to parent of the following variant strictly smaller than 0.6? chain 5 I2L
Ans. class 0

Qu. Input chain 5 E6H ; condition: ratio to parent strictly below 0.6. Does it hold?
Ans. class 1

Qu. Lab log: compare recorded ratio to parent with 0.6; is it strictly lower for chain 5 E6S ?
Ans. class 1

Qu. Determine if chain 5 I2D shows ratio to parent strictly lower than 0.6.
Ans. class 0

Qu. Decide: ratio to parent of chain 5 F5M strictly below 0.6?
Ans. class 0

Qu. Item chain 5 N4C : ratio to parent beneath 0.6, strictly?
Ans. class 1
